- system.tested: β1-AR (Homo sapiens, UniProt P08588)
- Sequence (P08588 whole entry): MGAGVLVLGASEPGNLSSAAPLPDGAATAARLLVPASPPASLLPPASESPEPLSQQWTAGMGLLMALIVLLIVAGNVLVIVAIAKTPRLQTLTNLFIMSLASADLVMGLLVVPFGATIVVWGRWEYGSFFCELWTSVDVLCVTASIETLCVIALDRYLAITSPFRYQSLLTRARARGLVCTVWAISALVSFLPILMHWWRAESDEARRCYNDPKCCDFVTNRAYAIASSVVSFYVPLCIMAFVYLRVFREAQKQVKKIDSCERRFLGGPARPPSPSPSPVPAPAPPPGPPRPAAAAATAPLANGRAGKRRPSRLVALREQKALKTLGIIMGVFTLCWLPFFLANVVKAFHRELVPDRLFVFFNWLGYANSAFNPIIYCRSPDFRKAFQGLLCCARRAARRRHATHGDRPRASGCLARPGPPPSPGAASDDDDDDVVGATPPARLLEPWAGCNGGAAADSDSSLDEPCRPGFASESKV
- run.description: radioligand binding assay, β1-AR, [3H]CGP12177
- run.parameters: radioligand [3H]CGP12177; values given as a range are from screening experiments with a low number of repeats; read-out: Ki β1-AR [3H]CGP12177
pKi: −log10 of the molar value. Where a name gives a salt, the structure may show the parent alone.
experimental.endpoint: pKi

{"columns": ["compound", "experimental.endpoint", "modifier", "assay.result"],
 "data": [
  ["CC(C)(C)CN[C@@H]1CCc2c(ccc(O)c2O)[C@H]1O [LM 117]", "pKi", "≤", 4.30],
  ["Oc1ccc2c(c1O)CC[C@@H](NC(CF)CF)[C@@H]2O [LM 103]", "pKi", "=", 5.00],
  ["NC1CCc2c(ccc(O)c2O)C1 (single isomer, unassigned) [AS LM27]", "pKi", "=", 4.34],
  ["Oc1ccc2c(c1O)CC[C@@H](NCC1CCC1)[C@@H]2O [LM 110]", "pKi", "=", 4.29],
  ["CC(C)N[C@@H]1CCc2cc(O)c(O)cc2[C@H]1O (relative stereo) [JS 3-89, trifluoroacetate]", "pKi", "<", 4.30],
  ["CNC1CCc2cc(O)c(O)cc2C1 (racemic) [AS LM31]", "pKi", "=", 4.36],
  ["CC(C)N[C@H]1CCc2cc(O)c(O)cc2[C@H]1O (relative stereo) [JS 3-71, trifluoroacetate]", "pKi", "<", 4.30],
  ["N[C@@H]1CCc2cc(O)c(O)cc2C1 [AS LM16]", "pKi", "=", 4.08],
  ["Oc1ccc2c(c1O)CC[C@@H](NCCF)[C@@H]2O [LM 80]", "pKi", "=", 5.15],
  ["Oc1ccc2c(c1O)CC[C@@H](NCCCF)[C@@H]2O [LM 75]", "pKi", "=", 5.12],
  ["Oc1ccc2c(c1O)CC[C@@H](NC1COC1)[C@@H]2O [LM 113]", "pKi", "≤", 4.30],
  ["CN[C@@H]1CCc2c(ccc(O)c2O)[C@H]1O [AS443]", "pKi", "=", 4.42],
  ["NC1CCc2c(ccc(O)c2O)C1 (single isomer, unassigned) [AS LM28]", "pKi", "<", 4.00],
  ["Oc1ccc2c(c1O)CC[C@H](NC1CCCC1)[C@@H]2O [JS 3-55]", "pKi", "<", 4.30],
  ["O=C(O)C(F)(F)F.Oc1ccc2c(c1O)CC[C@H](NC1CCCC1)[C@H]2O [JS 3-51]", "pKi", "=", 4.57],
  ["C[Si](C)(C)CN[C@@H]1CCc2c(ccc(O)c2O)[C@H]1O [LM 118]", "pKi", "≤", 4.30]
]}

###

- system.tested: UniProt P35348
- Sequence (P35348 1-466): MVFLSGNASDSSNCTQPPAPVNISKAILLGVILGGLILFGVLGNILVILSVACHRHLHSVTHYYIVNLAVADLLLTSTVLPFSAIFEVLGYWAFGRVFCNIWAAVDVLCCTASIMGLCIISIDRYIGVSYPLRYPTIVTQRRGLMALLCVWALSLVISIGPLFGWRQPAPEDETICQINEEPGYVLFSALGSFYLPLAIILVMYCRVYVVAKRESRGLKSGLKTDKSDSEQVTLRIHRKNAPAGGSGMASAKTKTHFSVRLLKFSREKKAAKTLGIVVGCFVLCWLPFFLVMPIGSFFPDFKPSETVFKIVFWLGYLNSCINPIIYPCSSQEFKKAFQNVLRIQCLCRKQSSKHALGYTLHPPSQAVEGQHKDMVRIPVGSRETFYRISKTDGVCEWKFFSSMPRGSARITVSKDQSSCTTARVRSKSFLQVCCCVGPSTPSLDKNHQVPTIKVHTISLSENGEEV
- run.description: radioligand binding assay, α1A-AR, [3H]prazosin
- run.parameters: radioligand [3H]prazosin; values given as a range are from screening experiments with a low number of repeats; read-out: Ki •1A-AR [3H]prazosin
experimental.endpoint: Ki

{"columns": ["compound", "system.tested", "assay.result"],
 "data": [
  ["Oc1ccc2c(c1O)CC[C@@H](NC1COC1)[C@@H]2O [LM 113]", "UniProt P35348", "≥ 60 µM"],
  ["CN[C@@H]1CCc2c(ccc(O)c2O)[C@H]1O [AS443]", "UniProt P35348", "17 µM"],
  ["Oc1ccc2c(c1O)CC[C@@H](NC(CF)CF)[C@@H]2O [LM 103]", "UniProt P35348", "> 100 µM"],
  ["C[Si](C)(C)CN[C@@H]1CCc2c(ccc(O)c2O)[C@H]1O [LM 118]", "UniProt P35348", "5 to 10 µM"],
  ["CC(C)(C)CN[C@@H]1CCc2c(ccc(O)c2O)[C@H]1O [LM 117]", "UniProt P35348", "10 to 20 µM"],
  ["COCC(COC)N[C@@H]1CCc2c(ccc(O)c2O)[C@H]1O [LM 114]", "UniProt P35348", "10 to 20 µM"],
  ["Oc1ccc2c(c1O)CC[C@@H](NCCF)[C@@H]2O [LM 80]", "UniProt P35348", "> 90 µM"]
]}
